- Tested on: DU-145 prostate
- protocol.details: NCI tumour cell line growth inhibition, 48 h
readout.label: TGI

Task: Item `N#Cc1nc(NC(=O)c2ccccc2C(=O)O)c(C#N)[nH]1` has what recorded TGI?
Result: > 100 µM

Task: How about this compound: `CCCCCCCCCc1nn2c(Cc3ccccc3)nnc2s1`
Result: 51.4 µM

Task: How about this compound: `O=c1oc2ccc(I)cc2c(=O)n1-c1ccc(Cl)cc1F`
Result: 21.7 µM

Task: How about this compound: `CCOC(=O)c1nnsc1NN`
Result: > 100 µM

Task: How about this compound: `O=c1[nH]c(Nc2cccc(CO)c2)nc2nc[nH]c12`
Result: > 100 µM

Task: How about this compound: COc1ccc(CC2COc3cc(O)cc(O)c3C2=O)cc1O (stereo not drawn)
Result: 68.1 µM

Task: How about this compound: `Cn1cc(C2=C(c3cn(C4CCN(Cc5ccccn5)CC4)c4ccccc34)C(=O)NC2=O)c2ccccc21`
Result: > 100 µM

Task: How about this compound: `c1c[nH]c(CN2CCOCC2)n1`
Result: > 100 µM

Task: How about this compound: `CCOC(=O)C#Cc1ccccc1`
Result: > 100 µM

Task: How about this compound: `COC(=O)C1(Cc2ccc3c(c2)CCC3)Cc2ccccc2C1`
Result: > 100 µM

Task: How about this compound: `CNC(=O)c1nn(C)c2c1C(C)(C)Cc1cnc(Nc3ccc(N4CCN(C)CC4)cc3)nc1-2`
Result: > 10 µM

Task: How about this compound: `COc1ccc2c(c1)/C(=C/c1cc(OC)c(OC)c(OC)c1)C(=O)N2`
Result: > 100 µM

Task: How about this compound: `O=S(=O)(CCCl)c1ccc(Cl)cc1`
Result: 12.3 µM

Task: How about this compound: `C\C(=N/N=C1/C(=C\N(C)C)C(=O)NC(=O)N1C)c1ccc(Cl)cc1`
Result: > 100 µM

Task: How about this compound: CC(=O)OC1C(COC(=O)c2ccccc2)OC(Nc2ncc(-c3ccc(Br)cc3)s2)C(OC(=O)c2ccccc2)C1OC(=O)c1ccccc1 (stereo not drawn)
Result: > 100 µM

Task: How about this compound: `O=c1cc(/C=C/c2ccccc2)[nH]c2cc3c(cc12)OCO3`
Result: > 100 µM

Task: How about this compound: `COC(=O)C1=Nc2c(C)nn(-c3ccccc3)c2N=C(c2ccccc2)C1`
Result: > 10 µM

Task: How about this compound: `NS(=O)(=O)c1cccc(NC(=S)NC(=O)Nc2ccc(Cl)c(Cl)c2)c1`
Result: 97.9 µM

Task: How about this compound: CCC(C(=O)C(=O)OC)P1(=O)OC(C)(C)CN1C(C)(C)C (stereo not drawn)
Result: > 100 µM

Task: How about this compound: `CCOC(=O)c1nc2cc(C(F)(F)F)ccc2nc1Nc1ccc(C(=O)NC(C(=O)OCC)C(=O)OCC)cc1`
Result: > 100 µM

Task: How about this compound: `COc1cc2c(cc1Cc1c(F)cccc1Cl)nc(-c1c(F)cccc1Cl)n2Cc1c(F)cccc1Cl`
Result: > 100 µM

Task: How about this compound: `[O-]/[N+](=C\c1ccccc1OC(=S)S)c1ccc(Cl)cc1`
Result: > 100 µM

Task: How about this compound: OC(c1cc2ccc(C(F)(F)F)cc2c2cc(C(F)(F)F)ccc12)C1CCCCN1 (stereo not drawn)
Result: 3.21 µM
